Cited source: patent US20260022246A1

Test: Evaluation of absorption spectrum (maximal absorption wavelength in chloroform solution)
Type: physicochemical
Details: chloroform solution, 3.0×10^−5 mol/L, 1 mm quartz cell
Experimental: The specific compound is diluted with chloroform to a concentration of […], and an absorbance of the obtained sample solution is measured with a spectrophotometer (UV-3600 Plus, manufactured by Shimadzu Corporation) using a 1 mm quartz cell. A maximal absorption wavelength (Amax) is measured from an absorption spectrum of the sample solution. […] A maximal absorption wavelength (Amax) was measured from the absorption spectrum of each sample solution. […]
# λmax (maximal absorption wavelength) annotations
Form entry: value (nm) — number only.

CCCCN(CCCC)c1ccc(N(c2ccc(N(CCCC)CCCC)cc2)c2ccc([N+](=C3C=CC(=[N+](c4ccc(N(c5ccc(N(CCCC)CCCC)cc5)c5ccc(N(CCCC)CCCC)cc5)cc4)c4ccc(N(c5ccc(N(CCCC)CCCC)cc5)c5ccc(N(CCCC)CCCC)cc5)cc4)C=C3)c3ccc(N(c4ccc(N(CCCC)CCCC)cc4)c4ccc(N(CCCC)CCCC)cc4)cc3)cc2)cc1.[F][Sb-]([F])([F])([F])([F])[F].[F][Sb-]([F])([F])([F])([F])[F] [Comparative compound 3, reference compound] :: 1051

`COc1ccc(N(c2ccc(OC)cc2)c2ccc([N+](=C3C=CC(=[N+](c4ccc(N(c5ccc(OC)cc5)c5ccc(OC)cc5)cc4)c4ccc(N(c5ccc(OC)cc5)c5ccc(OC)cc5)cc4)C=C3)c3ccc(N(c4ccc(OC)cc4)c4ccc(OC)cc4)cc3)cc2)cc1.[O-][Cl+3]([O-])([O-])[O-].[O-][Cl+3]([O-])([O-])[O-]` has a reported λmax (maximal absorption wavelength) of 1248

Summary for this compound, CCCCN(CCCC)c1ccc([N+](=C2C=CC(=[N+](c3ccc(N(CCCC)CCCC)cc3)c3ccc(N(CCCC)CCCC)cc3)C=C2)c2ccc(N(CCCC)CCCC)cc2)cc1.[F][Sb-]([F])([F])([F])([F])[F].[F][Sb-]([F])([F])([F])([F])[F] [Comparative compound 4, reference compound] : λmax (maximal absorption wavelength) is 1100

// sample Cc1ccc(N(c2ccc(C)cc2)c2ccc([N+](=C3C=CC(=[N+](c4ccc(N(c5ccc(C)cc5)c5ccc(C)cc5)cc4)c4ccc(N(c5ccc(C)cc5)c5ccc(C)cc5)cc4)C=C3)c3ccc(N(c4ccc(C)cc4)c4ccc(C)cc4)cc3)cc2)cc1 [Comparative compound 2, reference compound] , its λmax (maximal absorption wavelength) was 1250

* * *

Assay: Evaluation of absorption spectrum (maximal absorption wavelength in chloroform solution)
Format: physicochemical
Details: chloroform solution, 3.0×10^−5 mol/L, 1 mm quartz cell
λmax (maximal absorption wavelength) reference
Give a bare numeral; the unit nm is implied.

Documented λmax (maximal absorption wavelength) of `Cc1ccc(N(c2ccc(C)cc2)c2ccc([N+](=C3C=CC(=[N+](c4ccc(N(c5ccc(C)cc5)c5ccc(C)cc5)cc4)c4ccc(N(c5ccc(C)cc5)c5ccc(C)cc5)cc4)C=C3)c3ccc(N(c4ccc(C)cc4)c4ccc(C)cc4)cc3)cc2)cc1.F[P-](F)(F)(F)(F)F.F[P-](F)(F)(F)(F)F` : 1209

The compound `COc1cc(C)c(N(c2ccc([N+](=C3C=CC(=[N+](c4ccc(N(c5c(C)cc(OC)cc5C)c5c(C)cc(OC)cc5C)cc4)c4ccc(N(c5c(C)cc(OC)cc5C)c5c(C)cc(OC)cc5C)cc4)C=C3)c3ccc(N(c4c(C)cc(OC)cc4C)c4c(C)cc(OC)cc4C)cc3)cc2)c2c(C)cc(OC)cc2C)c(C)c1.[O-][Cl+3]([O-])([O-])[O-].[O-][Cl+3]([O-])([O-])[O-]` showed λmax (maximal absorption wavelength) equal to 1308

Consider `COC(=O)c1cccc(N(c2ccc([N+](=C3C=CC(=[N+](c4ccc(N(c5cccc(C(=O)OC)c5)c5cccc(C(=O)OC)c5)cc4)c4ccc(N(c5cccc(C(=O)OC)c5)c5cccc(C(=O)OC)c5)cc4)C=C3)c3ccc(N(c4cccc(C(=O)OC)c4)c4cccc(C(=O)OC)c4)cc3)cc2)c2cccc(C(=O)OC)c2)c1.[O-][Cl+3]([O-])([O-])[O-].[O-][Cl+3]([O-])([O-])[O-]` . Its measured λmax (maximal absorption wavelength) is 1232

* * *

Assay: Evaluation of solubility in methyl ethyl ketone (MEK)
Format: physicochemical
Design: key: A: 1 g or more of the compound was stably dissolved in 300 g of MEK; B: 1 g was not dissolved in 300 g of MEK; X: decomposition was observed by measuring the absorption spectrum after the dissolution
Conditions: stirred at room temperature for 30 minutes
ENDPOINT_NAME: Solubility in solvent

Cc1ccc(N(c2ccc(C)cc2)c2ccc([N+](=C3C=CC(=[N+](c4ccc(N(c5ccc(C)cc5)c5ccc(C)cc5)cc4)c4ccc(N(c5ccc(C)cc5)c5ccc(C)cc5)cc4)C=C3)c3ccc(N(c4ccc(C)cc4)c4ccc(C)cc4)cc3)cc2)cc1 [Comparative compound 2, reference compound] :: X

* * *

Assay: Evaluation of heat stability of polystyrene resin film (hot plate 180° C., 5 minutes)
Assay type: physicochemical
Set-up: key: absorbance reduction rate of Amax was less than 5%; B: absorbance reduction rate of Amax was 5% or more and less than 10%; C: absorbance reduction rate of Amax was 10% or more and less than 50%; D: absorbance reduction rate of Amax was 50% or more; X: solubility was insufficient, so that the film cannot be produced, which was not evaluable
Conditions: polystyrene resin film on glass, hot plate 180° C. for 5 minutes, absorbance reduction rate at λmax
ENDPOINT_NAME: Heat stability of resin composition

C1=CC(=[N+](c2ccc(N(c3ccccc3)c3ccccc3)cc2)c2ccc(N(c3ccccc3)c3ccccc3)cc2)C=CC1=[N+](c1ccc(N(c2ccccc2)c2ccccc2)cc1)c1ccc(N(c2ccccc2)c2ccccc2)cc1 [Comparative compound 1, reference compound] :: X

* * *

Each item that follows carries a reported λmax (maximal absorption wavelength).
Experiment: Evaluation of absorption spectrum (maximal absorption wavelength in chloroform solution)
Assay type: physicochemical
Settings: chloroform solution, 3.0×10^−5 mol/L, 1 mm quartz cell
Lab book: enter the figure in nm, no units written.

Answered examples (2):
C1=CC(=[N+](c2ccc(N(c3ccccc3)c3ccccc3)cc2)c2ccc(N(c3ccccc3)c3ccccc3)cc2)C=CC1=[N+](c1ccc(N(c2ccccc2)c2ccccc2)cc1)c1ccc(N(c2ccccc2)c2ccccc2)cc1 [Comparative compound 1, reference compound] :: 1230
N#Cc1ccc(N(c2ccc(C#N)cc2)c2ccc([N+](=C3C=CC(=[N+](c4ccc(N(c5ccc(C#N)cc5)c5ccc(C#N)cc5)cc4)c4ccc(N(c5ccc(C#N)cc5)c5ccc(C#N)cc5)cc4)C=C3)c3ccc(N(c4ccc(C#N)cc4)c4ccc(C#N)cc4)cc3)cc2)cc1.[O-][Cl+3]([O-])([O-])[O-].[O-][Cl+3]([O-])([O-])[O-] :: 1170

# λmax (maximal absorption wavelength) of `Cc1ccc(N(c2ccc(C)cc2)c2ccc([N+](=C3C=CC(=[N+](c4ccc(N(c5ccc(C)cc5)c5ccc(C)cc5)cc4)c4ccc(N(c5ccc(C)cc5)c5ccc(C)cc5)cc4)C=C3)c3ccc(N(c4ccc(C)cc4)c4ccc(C)cc4)cc3)cc2)cc1.O=S(=O)([C-](S(=O)(=O)C(F)(F)F)S(=O)(=O)C(F)(F)F)C(F)(F)F.O=S(=O)([C-](S(=O)(=O)C(F)(F)F)S(=O)(=O)C(F)(F)F)C(F)(F)F` = 1211

* * *

Test: Evaluation of absorption spectrum (maximal absorption wavelength in chloroform solution)
Type: physicochemical
Settings: chloroform solution, 3.0×10^−5 mol/L, 1 mm quartz cell
Method: The specific compound is diluted with chloroform to a concentration of […], and an absorbance of the obtained sample solution is measured with a spectrophotometer (UV-3600 Plus, manufactured by Shimadzu Corporation) using a 1 mm quartz cell. A maximal absorption wavelength (Amax) is measured from an absorption spectrum of the sample solution. […] A maximal absorption wavelength (Amax) was measured from the absorption spectrum of each sample solution. […]
ENDPOINT_NAME: λmax (maximal absorption wavelength) (nm)
Report the value in nm with no unit label.

CCCCc1ccc(N(c2ccc(CCCC)cc2)c2ccc([N+](=C3C=CC(=[N+](c4ccc(N(c5ccc(CCCC)cc5)c5ccc(CCCC)cc5)cc4)c4ccc(N(c5ccc(CCCC)cc5)c5ccc(CCCC)cc5)cc4)C=C3)c3ccc(N(c4ccc(CCCC)cc4)c4ccc(CCCC)cc4)cc3)cc2)cc1.[O-][Cl+3]([O-])([O-])[O-].[O-][Cl+3]([O-])([O-])[O-] [A-8] :: 1210
Cc1ccc(N(c2ccc(C)cc2)c2ccc([N+](=C3C=CC(=[N+](c4ccc(N(c5ccc(C)cc5)c5ccc(C)cc5)cc4)c4ccc(N(c5ccc(C)cc5)c5ccc(C)cc5)cc4)C=C3)c3ccc(N(c4ccc(C)cc4)c4ccc(C)cc4)cc3)cc2)cc1 [A-28] :: 1209
FC(F)(F)c1ccc(N(c2ccc([N+](=C3C=CC(=[N+](c4ccc(N(c5ccc(C(F)(F)F)cc5)c5ccc(C(F)(F)F)cc5)cc4)c4ccc(N(c5ccc(C(F)(F)F)cc5)c5ccc(C(F)(F)F)cc5)cc4)C=C3)c3ccc(N(c4ccc(C(F)(F)F)cc4)c4ccc(C(F)(F)F)cc4)cc3)cc2)c2ccc(C(F)(F)F)cc2)cc1.[O-][Cl+3]([O-])([O-])[O-].[O-][Cl+3]([O-])([O-])[O-] [A-7] :: 1162
N#Cc1ccc(N(c2ccc([N+](=C3C=CC(=[N+](c4ccc(N(c5ccc(C#N)c(F)c5)c5ccc(C#N)c(F)c5)cc4)c4ccc(N(c5ccc(C#N)c(F)c5)c5ccc(C#N)c(F)c5)cc4)C=C3)c3ccc(N(c4ccc(C#N)c(F)c4)c4ccc(C#N)c(F)c4)cc3)cc2)c2ccc(C#N)c(F)c2)cc1F [A-19] :: 1165

Reported λmax (maximal absorption wavelength) ( Cc1ccc(N(c2ccc(C)cc2)c2ccc([N+](=C3C=CC(=[N+](c4ccc(N(c5ccc(C)cc5)c5ccc(C)cc5)cc4)c4ccc(N(c5ccc(C)cc5)c5ccc(C)cc5)cc4)C=C3)c3ccc(N(c4ccc(C)cc4)c4ccc(C)cc4)cc3)cc2)cc1.F[B-](F)(F)F.F[B-](F)(F)F [A-29] ) = 1209

Per the records, this compound ( Cc1ccc(N(c2ccc(C)cc2)c2ccc([N+](=C3C=CC(=[N+](c4ccc(N(c5ccc(C)cc5)c5ccc(C)cc5)cc4)c4ccc(N(c5ccc(C)cc5)c5ccc(C)cc5)cc4)C=C3)c3ccc(N(c4ccc(C)cc4)c4ccc(C)cc4)cc3)cc2)cc1.c1ccc([B-](c2ccccc2)(c2ccccc2)c2ccccc2)cc1.c1ccc([B-](c2ccccc2)(c2ccccc2)c2ccccc2)cc1 [A-36] ) has λmax (maximal absorption wavelength) equal to 1215
